- ASSAYED TARGET: Carbonic anhydrase 4 (Bos taurus)
- Sequence (Q95323 whole entry): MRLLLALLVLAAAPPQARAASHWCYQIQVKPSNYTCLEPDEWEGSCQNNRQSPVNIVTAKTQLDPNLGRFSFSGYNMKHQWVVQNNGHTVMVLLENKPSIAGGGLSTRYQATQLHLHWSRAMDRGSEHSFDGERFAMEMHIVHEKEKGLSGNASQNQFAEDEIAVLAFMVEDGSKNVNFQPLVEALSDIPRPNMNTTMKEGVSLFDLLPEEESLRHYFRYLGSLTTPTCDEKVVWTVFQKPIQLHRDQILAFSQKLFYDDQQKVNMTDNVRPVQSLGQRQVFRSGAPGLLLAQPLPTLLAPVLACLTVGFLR
QUANTITY KIND: Ki (µM)
Reply numerically in µM, unit not repeated.

In: Notebook: pull reported Ki for Carbonic anhydrase 4 (Bos taurus), entry Cn1nc(S(N)(=O)=O)s/c1=N/S(=O)(=O)c1ccc(NC(=O)C(F)(F)C(F)(F)C(F)(F)C(F)(F)C(F)(F)C(F)(F)C(F)(F)C(F)(F)F)cc1
Out: 0.012

In: Next record, please: NS(=O)(=O)c1cc(S(N)(=O)=O)c(NS(=O)(=O)C(F)(F)C(F)(F)C(F)(F)C(F)(F)F)cc1Cl
Out: 0.043

In: Next record, please: NS(=O)(=O)c1nnc(NC(=O)CCNS(=O)(=O)C(F)(F)C(F)(F)C(F)(F)C(F)(F)C(F)(F)C(F)(F)C(F)(F)C(F)(F)F)s1
Out: 0.009

In: Next record, please: NS(=O)(=O)c1nnc(NS(=O)(=O)C(F)(F)C(F)(F)C(F)(F)C(F)(F)C(F)(F)C(F)(F)C(F)(F)C(F)(F)F)s1
Out: 0.012

In: Next record, please: NS(=O)(=O)c1ccc(NC(=O)C(F)(F)C(F)(F)C(F)(F)C(F)(F)C(F)(F)C(F)(F)C(F)(F)C(F)(F)F)c(Cl)c1
Out: 0.6

In: Next record, please: NS(=O)(=O)c1nnc(NS(=O)(=O)c2c(F)c(F)c(F)c(F)c2F)s1
Out: 0.006

In: Next record, please: Cn1nc(S(N)(=O)=O)sc1=NS(=O)(=O)c1c(F)c(F)c(F)c(F)c1F
Out: 0.009

The origin of these recorded values is ChEMBL document CHEMBL1133531.
